Exercise: for every item that follows, state its recorded zone of inhibition at 50 µg/mL.
- System: Klebsiella pneumoniae
- assay.explanation: Antimicrobial activity against Klebsiella pneumoniae MTCC 3384 at 50 ug/ml after 24 hrs by disc diffusion method
- Format: functional
- experimental.context: MTCC 3384, 24 h, read-out: DIZ
Return type: number; implicit unit mm.

So what does the record say about zone of inhibition at 50 µg/mL for "Cc1c(C(=O)NNC(=O)c2ccccc2)c(-c2ccccc2)nn1-c1ccccc1" ? 8

So what does the record say about zone of inhibition at 50 µg/mL for "COc1ccc(-c2nnc(-c3c(-c4ccccc4)nn(-c4ccccc4)c3C)o2)cc1" ? 9

So what does the record say about zone of inhibition at 50 µg/mL for "Cc1c(C(=O)O)c(-c2ccccc2)nn1-c1ccccc1" ? 4

So what does the record say about zone of inhibition at 50 µg/mL for "COc1ccc(-c2nn(-c3ccccc3)c(C)c2-c2nnc(-c3ccccc3)o2)cc1" ? 4

So what does the record say about zone of inhibition at 50 µg/mL for "COc1cc(-c2nn(-c3ccccc3)c(C)c2-c2nnc(-c3ccccc3)o2)cc(OC)c1OC" ? 6

So what does the record say about zone of inhibition at 50 µg/mL for "Cc1c(-c2nnc(-c3ccccc3)o2)c(-c2ccc(Cl)cc2)nn1-c1ccccc1" ? 5

So what does the record say about zone of inhibition at 50 µg/mL for "Cc1c(-c2nnc(-c3ccc([N+](=O)[O-])cc3)o2)c(-c2ccc([N+](=O)[O-])cc2)nn1-c1ccccc1" ? 8

So what does the record say about zone of inhibition at 50 µg/mL for "COc1cc(-c2nnc(-c3c(-c4ccccc4)nn(-c4ccccc4)c3C)o2)cc(OC)c1OC" ? 10

So what does the record say about zone of inhibition at 50 µg/mL for "Cc1c(-c2nnc(-c3ccc(Cl)cc3)o2)c(-c2ccc(Cl)cc2)nn1-c1ccccc1" ? 8

So what does the record say about zone of inhibition at 50 µg/mL for "COc1cc(-c2nnc(-c3c(-c4cc(OC)c(OC)c(OC)c4)nn(-c4ccccc4)c3C)o2)cc(OC)c1OC" ? 11

So what does the record say about zone of inhibition at 50 µg/mL for "Cc1c(-c2nnc(-c3ccccc3)o2)c(-c2ccc([N+](=O)[O-])cc2)nn1-c1ccccc1" ? 9

So what does the record say about zone of inhibition at 50 µg/mL for "Cc1c(-c2nnc(-c3ccc([N+](=O)[O-])cc3)o2)c(-c2ccccc2)nn1-c1ccccc1" ? 7

So what does the record say about zone of inhibition at 50 µg/mL for "Cc1c(-c2nnc(-c3ccccc3)o2)c(-c2ccccc2)nn1-c1ccccc1" ? 6

So what does the record say about zone of inhibition at 50 µg/mL for "CN(C)[C@@H]1C(O)=C(C(N)=O)C(=O)[C@@]2(O)C(O)=C3C(=O)c4c(O)cccc4[C@@](C)(O)[C@H]3C[C@@H]12" ? 12

So what does the record say about zone of inhibition at 50 µg/mL for "Cc1c(C(=O)NN)c(-c2ccccc2)nn1-c1ccccc1" ? 5

So what does the record say about zone of inhibition at 50 µg/mL for "COc1ccc(-c2nn(-c3ccccc3)c(C)c2-c2nnc(-c3ccccc3)o2)cc1OC" ? 6

So what does the record say about zone of inhibition at 50 µg/mL for "Cc1c(-c2nnc(-c3ccc(Cl)cc3)o2)c(-c2ccccc2)nn1-c1ccccc1" ? 6

The origin of these recorded values is ChEMBL document CHEMBL3098013.
